target.desc: USP25 (Homo sapiens, UniProt Q9UHP3)
Sequence (Q9UHP3 1-1055): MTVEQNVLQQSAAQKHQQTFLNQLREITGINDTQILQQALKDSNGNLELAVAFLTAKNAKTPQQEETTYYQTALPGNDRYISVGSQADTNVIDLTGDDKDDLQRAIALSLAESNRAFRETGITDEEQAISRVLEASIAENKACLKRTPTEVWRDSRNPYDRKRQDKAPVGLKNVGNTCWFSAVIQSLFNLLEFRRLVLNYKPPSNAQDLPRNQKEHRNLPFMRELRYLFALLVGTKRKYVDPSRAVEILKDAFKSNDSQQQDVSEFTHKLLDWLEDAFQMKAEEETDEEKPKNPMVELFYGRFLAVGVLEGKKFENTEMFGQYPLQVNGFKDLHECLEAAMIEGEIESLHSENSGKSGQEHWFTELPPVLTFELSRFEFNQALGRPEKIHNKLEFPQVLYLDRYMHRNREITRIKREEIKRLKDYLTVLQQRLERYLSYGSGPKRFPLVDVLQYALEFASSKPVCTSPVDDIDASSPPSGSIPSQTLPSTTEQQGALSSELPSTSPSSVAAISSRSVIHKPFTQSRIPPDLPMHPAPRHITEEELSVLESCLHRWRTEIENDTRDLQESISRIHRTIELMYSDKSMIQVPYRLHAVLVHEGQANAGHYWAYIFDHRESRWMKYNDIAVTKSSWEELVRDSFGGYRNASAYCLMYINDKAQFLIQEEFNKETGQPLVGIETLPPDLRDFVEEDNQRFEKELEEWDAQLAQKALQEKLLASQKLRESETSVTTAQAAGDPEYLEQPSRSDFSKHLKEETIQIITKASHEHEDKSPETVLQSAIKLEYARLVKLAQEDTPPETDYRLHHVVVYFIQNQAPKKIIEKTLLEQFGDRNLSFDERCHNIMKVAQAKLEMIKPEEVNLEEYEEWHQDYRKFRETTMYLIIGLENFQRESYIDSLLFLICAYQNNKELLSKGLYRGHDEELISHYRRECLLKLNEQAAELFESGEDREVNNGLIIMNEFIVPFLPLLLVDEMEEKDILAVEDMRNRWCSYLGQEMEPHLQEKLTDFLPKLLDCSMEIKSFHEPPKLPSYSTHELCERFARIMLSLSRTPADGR
pIC50: −log10 of the molar value.
readout.name: pIC50

Here is how some compounds turned out for pIC50.
[[record]]
compound = "CCn1ccc2c(NC)c(C(=O)NCCc3ccc(C4CCNCC4)cc3)cnc21 [Compound I-20]"
endpoint_value = "6.30 to 7.30"

[[record]]
compound = "CCn1ccc2c(Cl)c(C(=O)NCCc3ccc(N4CC5CCC(C4)N5)cc3)cnc21 [Compound I-01]"
endpoint_value = "5.00 to 6.00"

[[record]]
compound = "CCCn1ccc2c(NC)c(C(=O)NCCc3ccc(N4CC5CCC(C4)N5)cc3)cnc21 [Compound I-13]"
endpoint_value = "> 7.30"

[[record]]
compound = "CCn1ccc2c(NC)c(C(=O)NC[C@H](C)c3ccc(N4CC5CCC(C4)N5)cc3)cnc21 [Compound I-21]"
endpoint_value = "6.00 to 6.30"

[[record]]
compound = "CCCCn1ccc2c(NC)c(C(=O)NCCc3ccc(N4CC5CCC(C4)N5)cc3)cnc21 [Compound I-14]"
endpoint_value = "> 7.30"


Short answer for CCn1ccc2c(NC)c(C(=O)NCCc3ccc(N4CC5CCC(C4)N5)cc3)nnc21 [Compound I-27] : pIC50 was > 7.30

Memo: CCn1ccc2c(NC)c(C(=O)NCCc3ccc(N4CC5CCC(C4)N5)cc3)cnc21 [Compound I-02] , reported pIC50: > 7.30

The compound listed as CCn1ccc2c(NC)c(C(=O)N[C@@H]3CCc4cc(N5CC6CCC(C5)N6)ccc4C3)cnc21 [Compound I-26] has a reported pIC50 of 6.00 to 6.30

Sure, the documented pIC50 for CCn1ccc2c(NC)c(C(=O)NCCc3ccc(N4C5CCC4CNC5)cc3)cnc21 [Compound I-19] is 6.30 to 7.30

pIC50 reading for CCn1cc(Cl)c2c(NC)c(C(=O)NCCc3ccc(N4CC5CCC(C4)N5)cc3)cnc21 [Compound I-30] : 6.30 to 7.30

Data credit: patent US20250289829A1
